Source listed as PubChem BioAssay AID1159580.

Experiment: chemical genetic growth profiling, strain panel (AID 1159580);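 also: tested at 20 µM; growth read once vehicle control cultures reached saturation at 30 °C; lower values mean less growth of the strain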
Settings: S. cerevisiae deletion strains, growth OD, locus YCR088W, strain abp1
In all, about 5,500 compounds went through this assay and about 2,000 (36%) were called active. Another 18% or so got no clear call; they are omitted. Rule as the data show it: active = normalized growth mostly below about 0.91 (no sharp cut-off); inconclusive = no clear call, values can overlap the other calls; inactive = mostly above about 0.92. The list shows a part of the results.
Return exactly one item of true = active, false = inactive

### Prompt What is the recorded call for this compound in the test? C[C@H]1C(=O)CCC2[C@]3(C)CC[C@@]4(C)C5CC(C)(C)CC[C@]5(C)CC[C@]4(C)C3CC[C@@]21C (some centres not stated)
### Response false

### Prompt What is the recorded call for this compound in the test? CNC(C)(C)Cc1ccccc1
### Response false

### Prompt What is the recorded call for this compound in the test? CC(=O)O[C@@H]1C2CC[C@@H]3C1(C[C@@H](O)[C@@]1(O)[C@@H](C[C@H](O)C1(C)C)[C@]3(C)O)C[C@@]2(C)O (some centres not stated)
### Response false

### Prompt What is the recorded call for this compound in the test? O=C1NS(=O)(=O)c2ccccc21
### Response false

### Prompt What is the recorded call for this compound in the test? C/C(=C\CO)CC[C@H](C)CCC[C@H](C)CCCC(C)C
### Response true

### Prompt What is the recorded call for this compound in the test? COc1cc2c(cc1OC)C(C)NCC2 (configuration not stated)
### Response false

### Prompt What is the recorded call for this compound in the test? O=c1c(O)cccc2cc(O)c(O)c(O)c12
### Response true

### Prompt What is the recorded call for this compound in the test? CC(=O)NC1C(O)OC(COS(=O)(=O)O)C(OC2OC(C(=O)O)C(OC3OC(CO)C(OC4OC(C(=O)O)C(O)C(O)C4OS(=O)(=O)O)C(OS(=O)(=O)O)C3NS(=O)(=O)O)C(O)C2OS(=O)(=O)O)C1O (configuration not stated)
### Response false

### Prompt What is the recorded call for this compound in the test? COC(=O)CC1C(C)(C(=O)c2ccoc2)CC2OCC34C(CC(=O)OC)C5(C)CC36OC3(C)OC1(C(OC(C)=O)C6(OC(C)=O)C5OC(=O)C(C)C)C24O3 (configuration not stated)
### Response false

### Prompt What is the recorded call for this compound in the test? CON
### Response false

### Prompt What is the recorded call for this compound in the test? CCCCCC/C=C\CCCCCCCc1cccc(O)c1C(=O)O
### Response false

### Prompt What is the recorded call for this compound in the test? CC1CC(OC(=O)c2ccccc2O)CC(C)(C)C1 (configuration not stated)
### Response false

### Prompt What is the recorded call for this compound in the test? O=C1C=CC(=O)c2ccccc21
### Response true

### Prompt What is the recorded call for this compound in the test? NNCc1ccccc1
### Response false

### Prompt What is the recorded call for this compound in the test? O=C1c2ccccc2C(=O)c2ccccc21
### Response false

### Prompt What is the recorded call for this compound in the test? CC1=C(C(=O)O)N2C(=O)[C@@H](NC(=O)[C@@H](N)c3ccc(O)cc3)[C@H]2SC1
### Response false

### Prompt What is the recorded call for this compound in the test? CC(C)CCCC(C)N (configuration not stated)
### Response false

### Prompt What is the recorded call for this compound in the test? CC(C)[C@@H]1CC[C@@H](C)C[C@H]1OC(=O)c1ccccc1
### Response false

### Prompt What is the recorded call for this compound in the test? O=C1C=C(O)c2ccccc2C1=O
### Response false

### Prompt What is the recorded call for this compound in the test? CC(=O)O[C@H]1CC2CCC3C(CC[C@@]4(C)C3C[C@H]([N+]3(C)CCCCC3)[C@@H]4OC(C)=O)[C@@]2(C)C[C@@H]1N1CCCCC1 (some centres not stated)
### Response false

### Prompt What is the recorded call for this compound in the test? CC12CCC(O)CC1CCc1ccccc12 (configuration not stated)
### Response false

### Prompt What is the recorded call for this compound in the test? O=C(Nc1ccc([N+](=O)[O-])cc1Cl)c1cc(Cl)ccc1O
### Response false
